# Tested on: Human immunodeficiency virus 1
# Measurement Protocol: Concentration required for antiviral activity in PBMC (human peripheral blood mononuclear cells) infected with HIV-1 strain LAV
# Assay type: functional, organism-based
# Conditions Used: Human immunodeficiency virus 1, PBMC
Hi there, I'd appreciate the recorded pEC50 for every entry that follows.
One number for each entry, as −log10 of the molar value.

Reference set, count: 5
1. Nc1nc(O)c2ncn([C@@H]3CS[C@@H](CO)O3)c2n1 = 5.12
2. Nc1nc(F)nc2c1ncn2[C@H]1CS[C@@H](CO)O1 = 5.55
3. Nc1nc(F)nc2c1ncn2[C@@H]1CS[C@@H](CO)O1 = 4.21
4. Nc1nc(=O)n([C@H]2CS[C@@H](CO)O2)cc1Cl = 6.55
5. Nc1nc(=O)n([C@H]2CS[C@@H](CO)O2)cc1F = 6.42

Give pEC50 for each of the items listed below.
1. Nc1nc(=O)n([C@H]2CS[C@@H](CO)O2)cc1Br
2. CNc1ncnc2c1ncn2[C@@H]1CS[C@@H](CO)O1
3. Nc1ncnc2c1ncn2[C@@H]1CS[C@@H](CO)O1

1. 7.92
2. 4.93
3. 4.92

Entry source: ChEMBL document CHEMBL1126792
